The values you see were collected from patent US12617771B2.

Recorded measurements of 100 μM Inhibition rate %, one per entry
System: Pyrausta nubilalis GSTs
experimentalProtocol: Inhibition of total GSTs enzyme of Pyrausta nubilalis (CDNB method)
Format: biochemical
conditionLabel: 100 μM
Just the number please, in %, no unit attached.

Here is how some compounds turned out for 100 μM Inhibition rate %.
compound	experimentalValue
O=C(CC12C[C@H]3C[C@H](C1)C[C@@H](C2)C3)NNC(=O)c1cc(-c2ccccc2)nn1-c1ccccc1 [PXG26]	−0.99
N#Cc1ccccc1OCC(=O)NNC(=O)c1cc(-c2ccccc2)nn1-c1ccccc1 [PXG23]	15.55
CCCCCCSC[C@H](NC(=O)CC[C@H](N)C(=O)O)C(=O)NCC(=O)O [GTX, S-Hexylglutathione, reference compound]	86.35
CN(C)S(=O)(=O)c1cccc(C(=O)NNC(=O)c2cc(-c3ccccc3)nn2-c2ccccc2)c1 [PXG9]	5.71
COc1ccccc1CC(=O)NNC(=O)c1cc(-c2ccccc2)nn1-c1ccccc1 [PXG10]	−3.85

Entry CN(C)S(=O)(=O)c1ccc(C(=O)NNC(=O)c2cc(-c3ccccc3)nn2-c2ccccc2)cc1 [PXG29] has what 100 μM Inhibition rate %?
10.83

Entry N#Cc1ccc(OCC(=O)NNC(=O)c2cc(-c3ccccc3)nn2-c2ccccc2)cc1 [PXG19] has what 100 μM Inhibition rate %?
15.64

Entry O=C(COc1ccccc1)NNC(=O)c1cc(-c2ccccc2)nn1-c1ccccc1 [PXG5] has what 100 μM Inhibition rate %?
14.08

====

Recorded measurements of IC50, one per entry
assayedTarget: Spodoptera litura GSTs
experimentalProtocol: Inhibition of total GSTs enzyme of Spodoptera litura (CDNB method)

Here is how some compounds turned out for IC50.
compound	assayedTarget	experimentalValue
CC1(CCc2ccccc2)NC(=O)N(NC(=O)c2cc(-c3ccccc3)nn2-c2ccccc2)C1=O (stereo not shown) [PXG15]	Spodoptera litura GSTs	> 100 µM
COc1cc(C(=O)NNC(=O)c2cc(-c3ccccc3)nn2-c2ccccc2)cc(OC)c1OC [PXG4]	Spodoptera litura GSTs	> 100 µM
CCCCCCSC[C@H](NC(=O)CC[C@H](N)C(=O)O)C(=O)NCC(=O)O [GTX, S-Hexylglutathione, reference compound]	Spodoptera litura GSTs	15.2 µM

In the following, a different compound is considered.
API: value(readout=IC50, system=Spodoptera litura GSTs) for record O=C(NN1C(=O)NC2(CCCCC2)C1=O)c1cc(-c2ccccc2)nn1-c1ccccc1 [PXG6]
> 100 µM

====

Test system: Carposina sasakii GSTs
experimentalProtocol: Inhibition of total GSTs enzyme of Carposina sasakii (CDNB method)
Assay type: biochemical
conditionLabel: 100 μM
Protocol: Experiment: About 50 mg of larvae/nymphs of nine major pests such as Plutella xylostella, Mythimna separata, Pyrausta nubilalis, Chilo suppressalis, Nilaparvata lugens, Spodoptera frugiperda, Helicoverpa armigera, Carposina sasakii, Spodoptera litura were taken, grounded in a mortar pre-cooled at −80° C., and then 1 mL of 100 mM sodium phosphate buffer (1 mM EDTA, pH 7.2) was added and fully homogenized. […] The protein concentrations of the above total enzymes were determined using the BCA method. […]
measuredProperty: 100 μM Inhibition rate % (%)
Just the number please, in %, no unit attached.

compound	measuredProperty	experimentalValue
COc1cc(C(=O)NNC(=O)c2cc(-c3ccccc3)nn2-c2ccccc2)cc(OC)c1OC [PXG4]	100 μM Inhibition rate %	2.34
O=C(NN1C(=O)NC2(CCCCC2)C1=O)c1cc(-c2ccccc2)nn1-c1ccccc1 [PXG6]	100 μM Inhibition rate %	18.21
CN(C)S(=O)(=O)c1ccc(C(=O)NNC(=O)c2cc(-c3ccccc3)nn2-c2ccccc2)cc1 [PXG29]	100 μM Inhibition rate %	33.57

Entry CC1(c2ccccc2)NC(=O)N(NC(=O)c2cc(-c3ccccc3)nn2-c2ccccc2)C1=O (centres unmarked) [PXG12] has what 100 μM Inhibition rate %?
17.94

Entry COc1ccccc1OCC(=O)NNC(=O)c1cc(-c2ccccc2)nn1-c1ccccc1 [PXG18] has what 100 μM Inhibition rate %?
13.69

Entry O=C(NNC(=O)c1cc(-c2ccccc2)nn1-c1ccccc1)c1cc[nH]c(=O)c1 [PXG1] has what 100 μM Inhibition rate %?
71.91

Entry O=C(NNC(=O)c1cc(-c2ccccc2)nn1-c1ccccc1)c1ccccc1 [PXG11] has what 100 μM Inhibition rate %?
76.09

Entry CN(C)S(=O)(=O)c1cccc(C(=O)NNC(=O)c2cc(-c3ccccc3)nn2-c2ccccc2)c1 [PXG9] has what 100 μM Inhibition rate %?
12.55

Entry CCCCCCSC[C@H](NC(=O)CC[C@H](N)C(=O)O)C(=O)NCC(=O)O [GTX, S-Hexylglutathione, reference compound] has what 100 μM Inhibition rate %?
95.39

====

Recorded measurements of pIC50, one per entry
assayedTarget: Nilaparvata lugens GSTs
experimentalProtocol: Inhibition of total GSTs enzyme of Nilaparvata lugens (CDNB method)
pIC50: −log10 of the molar value.

Here is how some compounds turned out for pIC50.
compound	pIC50
CC1CCC2(CC1)NC(=O)N(NC(=O)c1cc(-c3ccccc3)nn1-c1ccccc1)C2=O (centres unmarked)	< 4.00
COc1ccccc1CC(=O)NNC(=O)c1cc(-c2ccccc2)nn1-c1ccccc1	< 4.00
O=C(CNc1ccccc1)NNC(=O)c1cc(-c2ccccc2)nn1-c1ccccc1	< 4.00
N#Cc1ccc(OCC(=O)NNC(=O)c2cc(-c3ccccc3)nn2-c2ccccc2)cc1	< 4.00
O=C(CC12C[C@H]3C[C@H](C1)C[C@@H](C2)C3)NNC(=O)c1cc(-c2ccccc2)nn1-c1ccccc1	< 4.00
O=C(COc1ccccc1)NNC(=O)c1cc(-c2ccccc2)nn1-c1ccccc1	< 4.00
CN(C)S(=O)(=O)c1cccc(C(=O)NNC(=O)c2cc(-c3ccccc3)nn2-c2ccccc2)c1	< 4.00

In the following, a different compound is considered.
Entry `COc1ccccc1OCC(=O)NNC(=O)c1cc(-c2ccccc2)nn1-c1ccccc1` has what pIC50?
< 4.00

====

assayedTarget: PxGSTδ1 (Plutella xylostella)
Sequence (D7URW9 entry or part of it): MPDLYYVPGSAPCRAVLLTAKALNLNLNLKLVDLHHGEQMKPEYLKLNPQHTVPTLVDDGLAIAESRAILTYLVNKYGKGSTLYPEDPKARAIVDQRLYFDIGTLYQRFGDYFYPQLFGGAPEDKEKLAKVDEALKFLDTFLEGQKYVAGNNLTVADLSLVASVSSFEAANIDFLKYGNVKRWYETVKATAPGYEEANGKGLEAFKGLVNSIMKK
experimentalProtocol: Inhibition of PxGSTδ1 recombinant protein
Assay type: biochemical
conditionLabel: read-out: 100 μM Inhibition rate %
Everything with inhibition at 100 µM lower than 70% is Not satisfied; everything else, including exactly 70%, is Satisfied.

Some entries whose results are on file:
compound	assignedCategory
CC1(c2ccccc2)NC(=O)N(NC(=O)c2cc(-c3ccccc3)nn2-c2ccccc2)C1=O (stereo not shown)	Not satisfied
COc1ccc(C2(C)NC(=O)N(NC(=O)c3cc(-c4ccccc4)nn3-c3ccccc3)C2=O)cc1 (stereo not shown)	Not satisfied
CCCCCCSC[C@H](NC(=O)CC[C@H](N)C(=O)O)C(=O)NCC(=O)O [GTX, S-Hexylglutathione, reference compound]	Not satisfied
COc1ccccc1OCC(=O)NNC(=O)c1cc(-c2ccccc2)nn1-c1ccccc1	Satisfied
O=C(CC12C[C@H]3C[C@H](C1)C[C@@H](C2)C3)NNC(=O)c1cc(-c2ccccc2)nn1-c1ccccc1	Not satisfied

Could you verify whether the entry `CN(C)S(=O)(=O)c1cccc(C(=O)NNC(=O)c2cc(-c3ccccc3)nn2-c2ccccc2)c1` shows inhibition at 100 µM of no less than 70%?
Not satisfied

====

assayedTarget: PxGSTσ1 (Plutella xylostella, UniProt Q6F436)
Sequence (Q6F436 entry or part of it): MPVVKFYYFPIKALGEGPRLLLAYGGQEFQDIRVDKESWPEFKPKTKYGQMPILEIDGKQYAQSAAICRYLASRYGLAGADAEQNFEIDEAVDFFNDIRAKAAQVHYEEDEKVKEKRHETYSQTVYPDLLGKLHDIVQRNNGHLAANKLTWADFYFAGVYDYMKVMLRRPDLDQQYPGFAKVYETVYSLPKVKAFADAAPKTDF
experimentalProtocol: Inhibition of PxGSTσ1 recombinant protein
Type: biochemical
conditionLabel: read-out: 100 μM Inhibition rate %
Everything with inhibition at 100 µM lower than 40% is f; everything else, including exactly 40%, is t.

O=C(CNc1ccccc1)NNC(=O)c1cc(-c2ccccc2)nn1-c1ccccc1 f

Could you verify whether the entry `N#Cc1ccccc1OCC(=O)NNC(=O)c1cc(-c2ccccc2)nn1-c1ccccc1` shows inhibition at 100 µM of no less than 40%?
f

Could you verify whether the entry `N#Cc1ccc(OCC(=O)NNC(=O)c2cc(-c3ccccc3)nn2-c2ccccc2)cc1` shows inhibition at 100 µM of no less than 40%?
t

Could you verify whether the entry `O=C(NNC(=O)c1cc(-c2ccccc2)nn1-c1ccccc1)c1cccnc1O` shows inhibition at 100 µM of no less than 40%?
f

Could you verify whether the entry `COc1ccccc1OCC(=O)NNC(=O)c1cc(-c2ccccc2)nn1-c1ccccc1` shows inhibition at 100 µM of no less than 40%?
f

====

Test system: Spodoptera frugiperda GSTs
experimentalProtocol: Inhibition of total GSTs enzyme of Spodoptera frugiperda (CDNB method)
Format: biochemical
conditionLabel: 100 μM
measuredProperty: 100 μM Inhibition rate % (%)
Just the number please, in %, no unit attached.

compound	100 μM Inhibition rate % (%)
O=C(NNC(=O)c1cc(-c2ccccc2)nn1-c1ccccc1)c1cc[nH]c(=O)c1 [PXG1]	58.40
O=C(CC12C[C@H]3C[C@H](C1)C[C@@H](C2)C3)NNC(=O)c1cc(-c2ccccc2)nn1-c1ccccc1 [PXG26]	16.01
CCCCCCSC[C@H](NC(=O)CC[C@H](N)C(=O)O)C(=O)NCC(=O)O [GTX, S-Hexylglutathione, reference compound]	95.20
N#Cc1ccccc1OCC(=O)NNC(=O)c1cc(-c2ccccc2)nn1-c1ccccc1 [PXG23]	22.33
COc1ccccc1OCC(=O)NNC(=O)c1cc(-c2ccccc2)nn1-c1ccccc1 [PXG18]	28.67

Entry CC1(CCc2ccccc2)NC(=O)N(NC(=O)c2cc(-c3ccccc3)nn2-c2ccccc2)C1=O (centres unmarked) [PXG15] has what 100 μM Inhibition rate %?
0.41

Entry CN(C)S(=O)(=O)c1ccc(C(=O)NNC(=O)c2cc(-c3ccccc3)nn2-c2ccccc2)cc1 [PXG29] has what 100 μM Inhibition rate %?
4.82

Entry O=C(COc1ccccc1)NNC(=O)c1cc(-c2ccccc2)nn1-c1ccccc1 [PXG5] has what 100 μM Inhibition rate %?
31.42
